Hey, just so you know, these numbers are from ChEMBL document CHEMBL1201862.

Entries and their GI50
Tested on: SNB-75
Test Protocol: NCI tumour cell line growth inhibition, 48 h
Activity calls are given as the source filed them. Cut-off read from the data, not from the text of the source: active = GI50 up to about 1.1 µM and inactive = higher.
Experimental Endpoint: GI50

# Molecule, Target Under Test, Experimental Endpoint, Result Value
data = [
    ("O=C1C(Cl)=C(N2CCC[C@@H]2CO)C(=O)c2c(O)ccc(O)c21", "SNB-75", "GI50", "1.69 µM (inactive)"),
    ("O=C1/C(=C\\c2ccccc2)c2ccccc2N1/N=C\\c1ccccc1", "SNB-75", "GI50", "29 µM (inactive)"),
    ("CC1(C(=O)O)CCC[C@@]2(C)C1CC[C@@]1(C)c3cocc3CCC21 (some centres not stated)", "SNB-75", "GI50", "> 100 µM (inactive)"),
    ("Oc1ccc(SCc2ccc(NCc3ccccc3)cc2)cc1", "SNB-75", "GI50", "21.6 µM (inactive)"),
    ("COc1cc(/C=N\\NC(=O)C[N+](C)(C)C)cc(OC)c1OC", "SNB-75", "GI50", "> 10 µM (inactive)"),
    ("N=C1SCCS1", "SNB-75", "GI50", "36.2 µM (inactive)"),
    ("COc1ccc(/C=C/C(=O)c2ccc(Br)cc2)cc1", "SNB-75", "GI50", "93.5 µM (inactive)"),
    ("N#Cc1c(-c2ccc(Cl)cc2)cc(-c2ccc(Nc3ccnc4cc(Cl)ccc34)cc2)nc1N", "SNB-75", "GI50", "> 100 µM (inactive)"),
    ("COc1ccc(-c2nc(O)c3ccccc3n2)cc1OC", "SNB-75", "GI50", "23.8 µM (inactive)"),
    ("CCCCCCCCCCCCCC(=O)OCC1OC(OC)C(NC(=O)N(CCCl)N=O)C(O)C1O (configuration not stated)", "SNB-75", "GI50", "8.89 µM (inactive)"),
    ("CC1CCC(=O)C(C(=O)CC2CC(=O)NC(=O)C2)C1 (configuration not stated)", "SNB-75", "GI50", "> 100 µM (inactive)"),
    ("O=C(C(O)c1cn(Cc2ccccc2)c2ccccc12)N1CCCCC1 (configuration not stated)", "SNB-75", "GI50", "> 100 µM (inactive)"),
]
